target: T1, human CD33 (human, UniProt P20138 18-259, limits assumed); experiment: SPR (BIAcore), Fab over CD33 on C1 chip
T1 construct: Human CD33 immobilized on the BLI sensor tip or the BIAcore C1 chip; also called Siglec-3
T1 sequence (P20138 18-259 limits assumed): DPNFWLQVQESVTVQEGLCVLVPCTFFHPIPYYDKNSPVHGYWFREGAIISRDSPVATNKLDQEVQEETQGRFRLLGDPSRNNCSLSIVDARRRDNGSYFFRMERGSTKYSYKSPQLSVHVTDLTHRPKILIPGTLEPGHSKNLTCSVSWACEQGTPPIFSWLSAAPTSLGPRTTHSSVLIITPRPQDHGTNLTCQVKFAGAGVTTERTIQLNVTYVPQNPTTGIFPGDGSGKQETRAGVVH
Assay Endpoint: pKd
pKd here is simply -log10 of the concentration when that concentration is written in mol/L.

QUERY: Return the recorded pKd value; entry: AB-H64 (antibody, V domains shown, Humanized variant of murine 2F5.1; also called parental humanized antibody) VH: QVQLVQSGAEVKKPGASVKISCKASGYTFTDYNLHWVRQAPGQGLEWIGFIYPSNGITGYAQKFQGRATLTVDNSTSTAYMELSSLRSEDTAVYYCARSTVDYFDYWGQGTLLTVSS VL: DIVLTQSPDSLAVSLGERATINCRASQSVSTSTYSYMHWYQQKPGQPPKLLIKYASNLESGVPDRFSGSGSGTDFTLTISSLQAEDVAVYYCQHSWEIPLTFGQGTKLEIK
RESULT: 8.67

QUERY: Assign pKd to the following record: Chimeric Ab (antibody, V domains shown, Chimeric antibody with the variable regions of murine 2F5.1; also called parental antibody; comparator antibody) VH: EVQLQQSGPELVKPGASVKISCKASGYTFTDYNLHWVKLSHGKSLEWIGFIYPSNGITGYNQKFKNKATLTVDNSSSTAYMELRSLTSEDSAVYYCARSTVDYFDYWGQGTTLTVSS VL: DIVLTQSPASLAVSLGQRATMSCRASQSVSTSTYSYMHWYQQKPGQPPKLLIKYASNLESGVPARFSGSGSGTDFTLNIHPVEEEDTATYYCQHSWEIPLTFGAGTKLELK
RESULT: 8.79

QUERY: // Input: AB-H11 (antibody, V domains shown, Humanized variant of murine 2F5.1) VH: QVQLVQSGAEVKKPGASVKVSCKASGYTFTDYNLHWVRQAPGQSLEWIGFIYPSNGITGYSQKFQGKATLTVDTSASTAYMELSSLRSEDTAVYYCARSTVDYFDYWGQGTTVTVSS VL: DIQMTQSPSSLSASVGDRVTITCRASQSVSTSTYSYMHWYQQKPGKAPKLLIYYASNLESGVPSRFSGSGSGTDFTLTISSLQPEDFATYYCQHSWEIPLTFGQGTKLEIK . Output its pKd only.
RESULT: 8.88
